# Protocol text: melting temperature; melt of duplexes
# Condition set: sodium 0.0675 M; strand 1 µM
Value kind: Tm (°C)

{"columns": ["Substance", "Observed value"],
 "data": [
  ["CGACGTGCTTTATGTGCTG+CAGCACATTACGCACGTCG ((((((((.(.((((((((+)))))))).).))))))))", 48.7],
  ["CGACGTGCAGGATGTGCTG+CAGCACATTTAGCACGTCG ((((((((...((((((((+))))))))...))))))))", 50.3],
  ["CGACGTGCTGAATGTGCTG+CAGCACATGCTGCACGTCG ((((((((.(.((((((((+)))))))).).))))))))", 53.5],
  ["CGACGTGCTAAATGTGCTG+CAGCACATTAGGCACGTCG ((((((((..(((((((((+)))))))))..))))))))", 53.8]
]}

###

# Protocol text: melting temperature; melt of duplexes
# Condition set: sodium 0.0675 M; strand 1 µM

{"columns": ["Substance", "Unit info", "Tm"],
 "data": [
  ["CGACGTGCCAGATGTGCTG+CAGCACATCGAGCACGTCG ((((((((..(((((((((+)))))))))..))))))))", "°C", 56.2],
  ["CGACGTGCGCCATGTGCTG+CAGCACATTCAGCACGTCG ((((((((...((((((((+))))))))...))))))))", "°C", 49.8],
  ["CGACGTGCTTAATGTGCTG+CAGCACATTCAGCACGTCG (((((((((.(((((((((+))))))))).)))))))))", "°C", 55.5],
  ["CGACGTGCGCGATGTGCTG+CAGCACATCACGCACGTCG (((((((((.(((((((((+))))))))).)))))))))", "°C", 62.2]
]}

###

# Protocol text: melting temperature; melt of duplexes
# Condition set: sodium 0.0675 M; strand 1 µM
Classify as follows. Reported Tm greater than or equal to 50 °C: y. Reported Tm below: n.

{"columns": ["Substance", "Category label"],
 "data": [
  ["CGACGTGCTAGATGTGCTG+CAGCACATTCTGCACGTCG ((((((((...((((((((+))))))))...))))))))", "y"],
  ["CGACGTGCGCTATGTGCTG+CAGCACATTCCGCACGTCG (((((((((..((((((((+))))))))..)))))))))", "y"],
  ["CGACGTGCCTCATGTGCTG+CAGCACATTAGGCACGTCG ((((((((((.((((((((+)))))))).))))))))))", "y"],
  ["CGACGTGCTGGATGTGCTG+CAGCACATCAGGCACGTCG ((((((((..(((((((((+)))))))))..))))))))", "y"],
  ["CGACGTGCCTAATGTGCTG+CAGCACATGGTGCACGTCG ((((((((...((((((((+))))))))...))))))))", "n"],
  ["CGACGTGCAAGATGTGCTG+CAGCACATATAGCACGTCG ((((((((.(.((((((((+)))))))).).))))))))", "y"],
  ["CGACGTGCATCATGTGCTG+CAGCACATATCGCACGTCG ((((((((...((((((((+))))))))...))))))))", "n"]
]}
